target: USP8^CD (purified catalytic domain of USP8) (Homo sapiens, UniProt P40818)
Construct: the purified catalytic domain of USP8 (USP8^CD, in-house purified); made in house; host or cells: E. coli BL21 Gold
Sequence (P40818 777-1109 limits assumed): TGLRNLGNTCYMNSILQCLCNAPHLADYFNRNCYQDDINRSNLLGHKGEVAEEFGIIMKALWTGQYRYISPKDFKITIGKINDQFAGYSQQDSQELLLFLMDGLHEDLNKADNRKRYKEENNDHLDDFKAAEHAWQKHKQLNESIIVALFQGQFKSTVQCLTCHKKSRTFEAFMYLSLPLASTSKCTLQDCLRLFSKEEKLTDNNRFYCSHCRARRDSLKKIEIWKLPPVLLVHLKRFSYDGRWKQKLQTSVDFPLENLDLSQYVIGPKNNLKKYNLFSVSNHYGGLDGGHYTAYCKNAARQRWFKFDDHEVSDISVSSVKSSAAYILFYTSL
measurement.description: Inhibition of purified USP8^CD enzymatic activity (Ub-AMC or Ub-Rho substrate)
Type: biochemical
reported.conditions: 10 μM compound; Table 1d
property.name: inhibition at 10 µM (%)

COc1ccc(S(=O)(=O)Cc2nc3c(nc2CS(=O)(=O)c2ccc(OC)cc2)C(=O)c2ccccc2C3=O)cc1	73
CCCS(=O)(=O)Cc1nc2c(nc1CS(=O)(=O)CCC)C(=O)c1ccccc1C2=O	99
CS(=O)(=O)Cc1nc2c(nc1CS(C)(=O)=O)C(=O)c1ccccc1C2=O	98

A. CCS(=O)(=O)Cc1nc2c(nc1CS(=O)(=O)CC)C(=O)c1ccccc1C2=O
B. O=C1c2ccccc2C(=O)c2nc(CS(=O)(=O)c3cccc(Cl)c3)c(CS(=O)(=O)c3cccc(Cl)c3)nc21
# input Returns: the argument ( A or B ) having the larger inhibition at 10 µM. Answer with the label corresponding to your selection.
# output A

P. O=C1c2ccccc2C(=O)c2nc(CS(=O)(=O)c3ccc(F)c(F)c3F)c(CS(=O)(=O)c3ccc(F)c(F)c3F)nc21
Q. O=C1c2ccccc2C(=O)c2nc(CS(=O)(=O)c3cccc(F)c3)c(CS(=O)(=O)c3cccc(F)c3)nc21
R. O=C1c2ccccc2C(=O)c2nc(CS(=O)(=O)c3ccc4c(c3)OCCO4)c(CS(=O)(=O)c3ccc4c(c3)OCCO4)nc21
# input Parameters: sort_field (inhibition at 10 µM), sort_dir (desc). Write the labels out in the order the request specifies.
# output P, R, Q
(P: 80%, R: 54%, Q: 35%)

* * *

target: USP2^CD (purified catalytic domain of USP2) (Homo sapiens, UniProt O75604)
Construct: The purified catalytic domain of USP2 (USP2^CD, in-house purified); His; made in house; host or cells: E. coli BL21 Gold
Sequence (O75604 267-599 limits assumed): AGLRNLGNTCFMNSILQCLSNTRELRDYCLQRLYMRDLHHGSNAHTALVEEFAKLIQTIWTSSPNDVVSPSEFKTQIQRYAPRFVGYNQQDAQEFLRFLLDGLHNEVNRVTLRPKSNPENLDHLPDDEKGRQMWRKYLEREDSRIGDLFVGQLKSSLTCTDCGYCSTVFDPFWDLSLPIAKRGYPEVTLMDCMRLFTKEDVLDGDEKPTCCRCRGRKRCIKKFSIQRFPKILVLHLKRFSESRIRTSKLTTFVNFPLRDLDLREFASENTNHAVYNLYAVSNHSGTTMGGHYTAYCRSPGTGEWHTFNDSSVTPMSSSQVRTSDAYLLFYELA
measurement.description: Inhibition of purified USP2^CD enzymatic activity (Ub-AMC or Ub-Rho substrate)
Format: biochemical
reported.conditions: 5 μM compound; Table 1c
property.name: inhibition at 5 µM (%)

O=C1c2ccccc2C(=O)c2nc(CS(=O)(=O)c3ccc(F)c(F)c3F)c(CS(=O)(=O)c3ccc(F)c(F)c3F)nc21 [OVM23]	-1

A. O=C1c2ccccc2C(=O)c2nc(CS(=O)(=O)c3cccc(Cl)c3)c(CS(=O)(=O)c3cccc(Cl)c3)nc21 [OVM15]
B. COc1ccc(S(=O)(=O)Cc2nc3c(nc2CS(=O)(=O)c2ccc(OC)cc2)C(=O)c2ccccc2C3=O)cc1 [PCR7994]
# input # argmax over inhibition at 5 µM for candidates A and B Identify your pick by its label.
# output B

* * *

target: USP8^CD (purified catalytic domain of USP8) (Homo sapiens, UniProt P40818)
Construct: the purified catalytic domain of USP8 (USP8^CD, in-house purified); made in house; host or cells: E. coli BL21 Gold
measurement.description: Inhibition of purified USP8^CD enzymatic activity (Ub-AMC or Ub-Rho substrate)
Type: biochemical
reported.conditions: Ub-AMC substrate at 1 μM; Table 2b; read-out: IC50 USP8 CD
pIC50: −log10 of the molar value.
property.name: pIC50

Record excerpt, results attached:
O=C1c2ccccc2C(=O)c2nc(CS(=O)(=O)c3cccc(Cl)c3)c(CS(=O)(=O)c3cccc(Cl)c3)nc21	6.40
O=C1c2ccccc2C(=O)c2nc(CS(=O)(=O)c3ccccc3F)c(CS(=O)(=O)c3ccccc3F)nc21	6.40

1. O=C1c2ccccc2C(=O)c2nc(CS(=O)(=O)c3ccc4c(c3)OCCO4)c(CS(=O)(=O)c3ccc4c(c3)OCCO4)nc21
2. CCS(=O)(=O)Cc1nc2c(nc1CS(=O)(=O)CC)C(=O)c1ccccc1C2=O
# input Field: entry with larger pIC50 (options 1 / 2 ). Bench note: the answer is the label of the chosen record.
# output 2

* * *

target: USP8^CD (purified catalytic domain of USP8) (Homo sapiens, UniProt P40818)
Construct: the purified catalytic domain of USP8 (USP8^CD, in-house purified); made in house; host or cells: E. coli BL21 Gold
measurement.description: Inhibition of purified USP8^CD enzymatic activity (Ub-AMC or Ub-Rho substrate)
Assay type: biochemical
reported.conditions: 0.05 μM compound; Table 1d
property.name: inhibition at 0.05 µM (%)

# example entries with known answers
O=C1c2ccccc2C(=O)c2nc(CS(=O)(=O)c3ccc(F)c(F)c3F)c(CS(=O)(=O)c3ccc(F)c(F)c3F)nc21 [OVM23]	12
CCCS(=O)(=O)Cc1nc2c(nc1CS(=O)(=O)CCC)C(=O)c1ccccc1C2=O [VIN6074]	16
O=C1c2ccccc2C(=O)c2nc(CS(=O)(=O)c3cccc(F)c3)c(CS(=O)(=O)c3cccc(F)c3)nc21 [OVM13]	3
COc1ccc(S(=O)(=O)Cc2nc3c(nc2CS(=O)(=O)c2ccc(OC)cc2)C(=O)c2ccccc2C3=O)cc1 [PCR7994]	-13
O=C1c2ccccc2C(=O)c2nc(CS(=O)(=O)c3cccc(Cl)c3)c(CS(=O)(=O)c3cccc(Cl)c3)nc21 [OVM15]	16
CS(=O)(=O)Cc1nc2c(nc1CS(C)(=O)=O)C(=O)c1ccccc1C2=O [VIN6076]	14

A. CCS(=O)(=O)Cc1nc2c(nc1CS(=O)(=O)CC)C(=O)c1ccccc1C2=O [VIN6075]
B. O=C1c2ccccc2C(=O)c2nc(CS(=O)(=O)c3ccc4c(c3)OCCO4)c(CS(=O)(=O)c3ccc4c(c3)OCCO4)nc21 [OVM19]
# input Select the item with the higher value of inhibition at 0.05 µM from the options A and B listed. Indicate which entry you chose by stating its label.
# output A
(A: 24%, B: -5%)

* * *

target: USP8^CD (purified catalytic domain of USP8) (Homo sapiens, UniProt P40818)
Construct: the purified catalytic domain of USP8 (USP8^CD, in-house purified); made in house; host or cells: E. coli BL21 Gold
measurement.description: Inhibition of purified USP8^CD enzymatic activity (Ub-AMC or Ub-Rho substrate)
Type: biochemical
reported.conditions: 1 μM compound; Ub-AMC at 1 μM; Table 1a
property.name: inhibition at 1 µM (%)

Worked set:
O=C1c2ccccc2C(=O)c2nc(CCl)c(CCl)nc21	6
O=C1c2ccccc2C(=O)c2nc(CS(=O)(=O)c3cccs3)c(CS(=O)(=O)c3cccs3)nc21	13
Cc1cc(C)c(S(=O)(=O)Cc2nc3c(nc2CS(=O)(=O)c2c(C)cc(C)cc2C)C(=O)c2ccccc2C3=O)c(C)c1	10
Cc1ccc(S(=O)(=O)Cc2nc3c(nc2CS(=O)(=O)c2ccc(C)cc2)C(=O)c2ccccc2C3=O)cc1	55

a. CC/C=C/c1nc2c(nc1/C=C/CC)C(=O)c1ccccc1C2=O
b. O=C1c2ccccc2C(=O)c2nc(CS(=O)(=O)c3ccc([N+](=O)[O-])cc3)c(CS(=O)(=O)c3ccc([N+](=O)[O-])cc3)nc21
c. O=C1c2ccccc2C(=O)c2nc(CS(=O)(=O)c3ccc(F)cc3)c(CS(=O)(=O)c3ccc(F)cc3)nc21
d. O=C1c2ccccc2C(=O)c2nc(C=C3CCCC3)c(C=C3CCCC3)nc21
# input Reorder: inhibition at 1 µM, max to min. Write the labels in rank order as requested.
# output b, c, a, d

* * *

target: USP8^CD (purified catalytic domain of USP8) (Homo sapiens, UniProt P40818)
Construct: the purified catalytic domain of USP8 (USP8^CD, in-house purified); made in house; host or cells: E. coli BL21 Gold
measurement.description: Inhibition of purified USP8^CD enzymatic activity (Ub-AMC or Ub-Rho substrate)
Assay type: biochemical
reported.conditions: 5 μM compound; Table 1b
property.name: inhibition at 5 µM (%)

// worked examples, inhibition at 5 µM included
COc1ccc(S(=O)(=O)Cc2nc3c(nc2CS(=O)(=O)c2ccc(OC)c(OC)c2)C(=O)c2ccccc2C3=O)cc1OC	103
CCS(=O)(=O)Cc1nc2c(nc1CS(=O)(=O)CC)C(=O)c1ccccc1C2=O	102
O=C1c2ccccc2C(=O)c2nc(CS(=O)(=O)c3cccc(F)c3)c(CS(=O)(=O)c3cccc(F)c3)nc21	88

1. O=C1c2ccccc2C(=O)c2nc(CS(=O)(=O)c3ccc4c(c3)OCCO4)c(CS(=O)(=O)c3ccc4c(c3)OCCO4)nc21
2. CCCS(=O)(=O)Cc1nc2c(nc1CS(=O)(=O)CCC)C(=O)c1ccccc1C2=O
# input Lab note: check whether 1 or 2 shows the higher recorded inhibition at 5 µM. Write the label of whichever entry you select.
# output 2

* * *

target: USP2^CD (purified catalytic domain of USP2) (Homo sapiens, UniProt O75604)
Construct: The purified catalytic domain of USP2 (USP2^CD, in-house purified); His; made in house; host or cells: E. coli BL21 Gold
measurement.description: Inhibition of purified USP2^CD enzymatic activity (Ub-AMC or Ub-Rho substrate)
Format: biochemical
reported.conditions: 0.5 μM compound; Table 1c
property.name: inhibition at 0.5 µM (%)

Example compounds with recorded inhibition at 0.5 µM:
CCCCCS(=O)(=O)Cc1nc2c(nc1CS(=O)(=O)CCCCC)C(=O)c1ccccc1C2=O	11
O=C1c2ccccc2C(=O)c2nc(CS(=O)(=O)c3ccc(F)c(F)c3F)c(CS(=O)(=O)c3ccc(F)c(F)c3F)nc21	16
COc1ccc(S(=O)(=O)Cc2nc3c(nc2CS(=O)(=O)c2ccc(OC)c(OC)c2)C(=O)c2ccccc2C3=O)cc1OC	-20
CCS(=O)(=O)Cc1nc2c(nc1CS(=O)(=O)CC)C(=O)c1ccccc1C2=O	2
CS(=O)(=O)Cc1nc2c(nc1CS(C)(=O)=O)C(=O)c1ccccc1C2=O	6

A. O=C1c2ccccc2C(=O)c2nc(CS(=O)(=O)c3cccc(F)c3)c(CS(=O)(=O)c3cccc(F)c3)nc21
B. O=C1c2ccccc2C(=O)c2nc(CS(=O)(=O)c3ccccc3F)c(CS(=O)(=O)c3ccccc3F)nc21
C. O=C1c2ccccc2C(=O)c2nc(CS(=O)(=O)c3cccc(Cl)c3)c(CS(=O)(=O)c3cccc(Cl)c3)nc21
# input hey, can you rank those compounds up there by inhibition at 0.5 µM? biggest number first please // format: requested-order list of labels
# output C, B, A
